Test system: MOLT-4 leukemia
Test: NCI tumour cell line growth inhibition, 48 h; in the data active = GI50 below about 0.43 µM; inactive = the rest
The categories you may choose from are active, inactive

[[record]]
line_notation = "CS(=O)(=O)c1ccc(N/N=C/c2c(-c3ccc(S(C)(=O)=O)cc3)[nH]c3ccc(F)cc23)cc1"
target_under_test = "MOLT-4 leukemia"
label_value = "inactive"


Tell me the recorded outcome of this test for "Nc1ncc(-c2cnn(C3CCNCC3)c2)cc1-c1nc2ccccc2o1" .
active

Per the records of this test, what outcome belongs to "COc1ccc(C(=O)/C=C/c2cc3ccccc3[nH]c2=O)cc1" ?
inactive

GET /call?item= "CC(=O)[O-].CC(=O)[O-].[Mn+2].c1ccc(/C(=N\Nc2ccccn2)c2ccccn2)cc1" returns the recorded outcome of this test.
active

Which result was noted for this molecule in the test: "O=C1C=C(Nc2ccccc2)c2ncccc2C1=O"
inactive

What classification did "O=C1c2ccccc2C(=O)N1/N=C\c1ccc(Br)cc1" end up with in this test?
inactive

What did the test return for "COC(=O)c1cccc(NC(=O)Nc2ccc3oc(=O)c4ccccc4c3c2)c1" ?
inactive

Write down the call the test reported for this molecule. Item: "O=c1oc2ccc(Cl)cc2c(=O)n1-c1ccc(Cl)cc1F"
inactive

What did this assay record as the result for "CC[O-].CC[O-].[O-]c1ccccc1C=Nc1ccccc1.[O-]c1ccccc1C=Nc1ccccc1.[Ti+4]" ?
inactive

Tell me the assay call for "CCc1ccc(C2=C/C(=C/c3ccc(Cl)cc3)C(=O)N2CCc2ccc(S(N)(=O)=O)cc2)cc1" please.
inactive
